B1: LINE1-full (parent)
chain: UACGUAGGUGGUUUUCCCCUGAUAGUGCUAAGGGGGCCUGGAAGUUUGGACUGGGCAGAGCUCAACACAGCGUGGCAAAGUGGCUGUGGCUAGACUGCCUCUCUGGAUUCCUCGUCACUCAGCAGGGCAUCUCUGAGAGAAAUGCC

Variants of: B1
Assay: self-cleavage, relative activity (ratio to wild type); higher = more cleavage; in vitro, sequencing; the parent is a self-cleaving ribozyme
self-cleavage by entry:
readout.name: self-cleavage

mutant: U14C A136G
readout.name: self-cleavage
result: 1.45
--
mutant: U46C A67C
readout.name: self-cleavage
result: 0.05
--
mutant: A65U C99U
readout.name: self-cleavage
result: 0.1
--
mutant: U45C A94G
readout.name: self-cleavage
result: 0.3
--
mutant: C133A
readout.name: self-cleavage
result: 1.37
--
mutant: A129U C133A
readout.name: self-cleavage
result: 1.26
--
mutant: G8U A129G
readout.name: self-cleavage
result: 0.32
--
mutant: G48C A142G
readout.name: self-cleavage
result: 1.38
--
mutant: C38U U47C
readout.name: self-cleavage
result: 0.93
--
mutant: G40C A140G
readout.name: self-cleavage
result: 1.23
--
mutant: A57G A142G
readout.name: self-cleavage
result: 0.84
--
mutant: U14C A136C
readout.name: self-cleavage
result: 1.36
--
mutant: U29G A64G
readout.name: self-cleavage
result: 0.6
--
mutant: U104A U119C
readout.name: self-cleavage
result: 1.47
--
mutant: G8A U109C
readout.name: self-cleavage
result: 1.21
--
mutant: U20A A42U
readout.name: self-cleavage
result: 0.9
--
mutant: G10A U20C
readout.name: self-cleavage
result: 1.6
--
mutant: G54C U104C
readout.name: self-cleavage
result: 1.3
--
mutant: A43U G122A
readout.name: self-cleavage
result: 1.02
--
mutant: U20G A79G
readout.name: self-cleavage
result: 1.17
--
mutant: G127A A136G
readout.name: self-cleavage
result: 1.5
--
mutant: G40A A78U
readout.name: self-cleavage
result: 1.96
--
mutant: U20C A77U
readout.name: self-cleavage
result: 1.02
--
mutant: U52C U73C
readout.name: self-cleavage
result: 0.54
--
mutant: U39C C123U
readout.name: self-cleavage
result: 0.9
--
mutant: C101A A138G
readout.name: self-cleavage
result: 1.36
--
mutant: U39A A142C
readout.name: self-cleavage
result: 1.59
--
mutant: C98A
readout.name: self-cleavage
result: 0.17
--
mutant: C90U U130C
readout.name: self-cleavage
result: 0.04
--
mutant: G4A A141G
readout.name: self-cleavage
result: 0.89
--
mutant: A6G U143C
readout.name: self-cleavage
result: 0.57
--
mutant: U1A U47C
readout.name: self-cleavage
result: 1.02
--
mutant: U115A U134C
readout.name: self-cleavage
result: 1.49
--
mutant: G58U
readout.name: self-cleavage
result: 0.05
--
mutant: G125U U134C
readout.name: self-cleavage
result: 1.2
--
mutant: A31U A141G
readout.name: self-cleavage
result: 1.01
--
mutant: C113U U143A
readout.name: self-cleavage
result: 1.1
--
mutant: U20A C56U
readout.name: self-cleavage
result: 0.18
--
mutant: U100G U130C
readout.name: self-cleavage
result: 2.21
--
mutant: U46A U130C
readout.name: self-cleavage
result: 1.88
--
mutant: U9A
readout.name: self-cleavage
result: 1.05
--
mutant: U13C U109C
readout.name: self-cleavage
result: 1
--
mutant: C28A A124G
readout.name: self-cleavage
result: 0.56
--
mutant: A64G G105A
readout.name: self-cleavage
result: 0.03
--
mutant: G49A C133G
readout.name: self-cleavage
result: 1.39
--
mutant: U15C G34A
readout.name: self-cleavage
result: 0.78
--
mutant: U29A U96C
readout.name: self-cleavage
result: 0.13
--
mutant: G88C G125C
readout.name: self-cleavage
result: 0.06
--
mutant: U52C U119C
readout.name: self-cleavage
result: 1.86
--
mutant: U14C A65G
readout.name: self-cleavage
result: 0.12
--
mutant: C76A A78G
readout.name: self-cleavage
result: 1.68
--
mutant: U91A G126A
readout.name: self-cleavage
result: 0.43
--
mutant: A31G U130A
readout.name: self-cleavage
result: 1.26
--
mutant: G4A A136G
readout.name: self-cleavage
result: 0.86
--
mutant: G32U U102C
readout.name: self-cleavage
result: 1.13
--
mutant: C3U U134C
readout.name: self-cleavage
result: 1.05
--
mutant: A117U U119A
readout.name: self-cleavage
result: 0.99
--
mutant: U23C C61A
readout.name: self-cleavage
result: 0.06
--
mutant: U12C A42C
readout.name: self-cleavage
result: 0.85
--
mutant: C103U A107U
readout.name: self-cleavage
result: 1.2
--
mutant: A78G G114A
readout.name: self-cleavage
result: 0.83
--
mutant: U45G
readout.name: self-cleavage
result: 1.18
--
mutant: A67G G144A
readout.name: self-cleavage
result: 0.69
--
mutant: G34A A43C
readout.name: self-cleavage
result: 1.23
--
mutant: A31G C38U
readout.name: self-cleavage
result: 0.99
--
mutant: U15C C111U
readout.name: self-cleavage
result: 1.47
--
mutant: U104C U109C
readout.name: self-cleavage
result: 1.39
--
mutant: U23C A117U
readout.name: self-cleavage
result: 1.75
--
mutant: U12A A31U
readout.name: self-cleavage
result: 2
--
mutant: G11A A64C
readout.name: self-cleavage
result: 0.1
--
mutant: A121U A124U
readout.name: self-cleavage
result: 1.54
--
mutant: U47C U87C
readout.name: self-cleavage
result: 0.48
--
mutant: U73C G88A
readout.name: self-cleavage
result: 0.06
--
mutant: U46C A79U
readout.name: self-cleavage
result: 1.83
--
mutant: U46A A117U
readout.name: self-cleavage
result: 1.46
--
mutant: U15C A24G
readout.name: self-cleavage
result: 1.13
--
mutant: G35C U134A
readout.name: self-cleavage
result: 0.71
--
mutant: G36A A140G
readout.name: self-cleavage
result: 1.3
--
mutant: G32C U45C
readout.name: self-cleavage
result: 1
--
mutant: A31C U143A
readout.name: self-cleavage
result: 1.01
--
mutant: A2G A50U
readout.name: self-cleavage
result: 0.18
--
mutant: A92C U102C
readout.name: self-cleavage
result: 0.14
--
mutant: U5A A64C
readout.name: self-cleavage
result: 0.19
--
mutant: U13C G58C
readout.name: self-cleavage
result: 0.08
--
mutant: A59G A136G
readout.name: self-cleavage
result: 0.07
--
mutant: A57U A77G
readout.name: self-cleavage
result: 0.17
--
mutant: C37G G60A
readout.name: self-cleavage
result: 0.06
--
mutant: C3U A94G
readout.name: self-cleavage
result: 0.54
--
mutant: A50U U134C
readout.name: self-cleavage
result: 0.98
--
mutant: U20C C113A
readout.name: self-cleavage
result: 1.06
--
mutant: U119C U134C
readout.name: self-cleavage
result: 2.11
